Target: BRM (Homo sapiens, UniProt P51531)
Construct: made in house; host or cells: High Five insect cells
Sequence (P51531 whole entry): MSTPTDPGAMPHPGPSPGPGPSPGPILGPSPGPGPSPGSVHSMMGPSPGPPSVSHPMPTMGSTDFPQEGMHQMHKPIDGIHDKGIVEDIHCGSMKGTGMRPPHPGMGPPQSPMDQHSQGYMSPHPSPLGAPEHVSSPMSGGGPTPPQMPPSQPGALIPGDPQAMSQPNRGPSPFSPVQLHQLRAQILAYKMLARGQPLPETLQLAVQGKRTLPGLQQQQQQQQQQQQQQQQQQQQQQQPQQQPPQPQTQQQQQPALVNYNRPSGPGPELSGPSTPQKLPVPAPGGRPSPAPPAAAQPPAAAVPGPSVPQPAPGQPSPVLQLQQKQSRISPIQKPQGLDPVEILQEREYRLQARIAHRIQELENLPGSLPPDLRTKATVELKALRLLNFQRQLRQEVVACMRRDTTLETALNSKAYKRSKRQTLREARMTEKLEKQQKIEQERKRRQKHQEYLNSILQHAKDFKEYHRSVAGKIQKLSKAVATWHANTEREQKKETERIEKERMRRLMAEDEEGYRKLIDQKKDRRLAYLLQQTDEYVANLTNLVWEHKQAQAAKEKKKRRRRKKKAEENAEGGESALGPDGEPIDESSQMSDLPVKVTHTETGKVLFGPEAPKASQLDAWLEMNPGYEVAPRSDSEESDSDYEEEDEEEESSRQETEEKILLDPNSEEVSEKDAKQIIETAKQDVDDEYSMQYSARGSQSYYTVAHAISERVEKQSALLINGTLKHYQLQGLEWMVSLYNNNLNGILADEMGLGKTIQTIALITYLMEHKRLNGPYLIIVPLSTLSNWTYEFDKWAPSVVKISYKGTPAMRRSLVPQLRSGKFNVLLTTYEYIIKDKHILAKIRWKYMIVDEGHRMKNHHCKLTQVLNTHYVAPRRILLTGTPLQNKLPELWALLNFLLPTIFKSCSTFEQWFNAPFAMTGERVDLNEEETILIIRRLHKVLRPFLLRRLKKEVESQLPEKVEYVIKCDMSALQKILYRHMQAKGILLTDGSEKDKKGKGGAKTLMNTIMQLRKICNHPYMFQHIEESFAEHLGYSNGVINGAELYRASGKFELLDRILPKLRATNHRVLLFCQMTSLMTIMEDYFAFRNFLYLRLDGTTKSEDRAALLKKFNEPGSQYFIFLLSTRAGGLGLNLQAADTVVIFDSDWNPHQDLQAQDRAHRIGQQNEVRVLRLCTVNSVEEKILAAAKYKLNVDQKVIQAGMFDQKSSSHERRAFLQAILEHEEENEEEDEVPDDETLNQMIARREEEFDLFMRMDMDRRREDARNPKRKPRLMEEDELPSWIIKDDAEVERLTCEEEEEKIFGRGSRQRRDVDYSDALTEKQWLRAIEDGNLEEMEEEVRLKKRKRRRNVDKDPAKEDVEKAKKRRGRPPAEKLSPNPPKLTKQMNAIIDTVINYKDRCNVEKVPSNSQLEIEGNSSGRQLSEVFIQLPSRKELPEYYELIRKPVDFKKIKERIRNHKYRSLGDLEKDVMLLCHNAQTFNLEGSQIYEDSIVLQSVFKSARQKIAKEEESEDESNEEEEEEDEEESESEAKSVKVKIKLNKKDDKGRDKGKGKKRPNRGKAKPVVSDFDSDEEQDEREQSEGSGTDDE
Experiment: ATPase catalytic activity of BRM, ADP-Glo in vitro biochemical assay
Details: selectivity ratio BRG1 IC50 / BRM IC50
VALUE TYPE: Ratio* (BRG1 IC50 (μM) divided by BRM IC50 (μM))

COCCN(C)c1cccc(-c2ccc3cnc(CNC(=O)c4cnc(C(F)F)c(S(C)(=O)=O)c4)cc3n2)n1 [Compound 105]; 13.41

a. COCC1CN(c2cccc(-c3ccc4cnc(CNC(=O)c5ccc6c(c5)S(=O)(=O)CCOC6)cc4n3)n2)C1 [Compound 221]
b. C[C@@H]1CN(c2cccc(-c3ccc4cnc(CNC(=O)c5ccc(C(F)F)c(S(C)(=O)=O)c5)cc4n3)n2)C[C@@H](C)O1 [Compound 158]
Asked: Which record would sort first by descending Ratio* (BRG1 IC50 (μM) divided by BRM IC50 (μM)), a or b ? Output the label that corresponds to your choice.
Given back: b

====

Biological target: BRM (Homo sapiens, UniProt P51531)
Construct: made in house; host or cells: High Five insect cells
Assay: ATPase catalytic activity of BRM, ADP-Glo in vitro biochemical assay
Conditions: ATPase catalytic activity, ADP-Glo; 30 nM BRM, 400 μM ATP
VALUE TYPE: IC50 (nM)

A. COCCn1cc2cccc(-c3ccc4cnc(CNC(=O)c5ccc6c(c5)S(=O)(=O)CCOC6)cc4n3)c2n1
B. C[C@@H]1CN(c2cccc(-c3ccc4cnc(CNC(=O)c5cc(C(F)F)c6c(c5)S(=O)(=O)CCOC6)cc4n3)n2)C[C@H](C)O1
C. O=C(NCc1cc2nc(N3CCOc4cc(C5CC5)ccc43)ccc2cn1)c1ccc2c(c1)S(=O)(=O)CCOC2
Asked: Arrange the items listed above so that IC50 rises from first to last. Reply: labels, ordered per the request.
Given back: B, C, A

P. Cc1cnc2c(c1)N(C)CCN2c1ccc2cnc(CNC(=O)c3ccc4c(c3)S(=O)(=O)CCOC4)cc2n1
Q. O=C(NCc1cc2nc(N3CCCc4ccc(C(F)(F)F)nc43)ccc2cn1)c1ccc2c(c1)S(=O)(=O)CCOC2
R. COCCN1CCCOc2c(-c3ccc4cnc(CNC(=O)c5ccc6c(c5)S(=O)(=O)CCOC6)cc4n3)cccc21
Asked: Hi! Can you put these in order of IC50, lowest number first? Reply: labels, ordered per the request.
Given back: P, Q, R
(P: 9 nM, Q: 66.9 nM, R: 105 nM)

1. O=C(NCc1cc2nc(-c3cccc(N4CC[C@H]5C[C@H]5C4)n3)ccc2cn1)c1ccc2c(c1)S(=O)(=O)CCOC2
2. Cc1cnc2c(c1)OCCN2c1ccc2cnc(CNC(=O)c3cc(C)c4c(c3)S(=O)(=O)CCOC4)cc2n1
Asked: Which record would sort first by descending IC50, 1 or 2 ? Output the label that corresponds to your choice.
Given back: 1
(1: 11 nM, 2: 7.3 nM)

====

Biological target: BRM (Homo sapiens, UniProt P51531)
Construct: made in house; host or cells: High Five insect cells
Experiment: ATPase catalytic activity of BRM, ADP-Glo in vitro biochemical assay
Details: ratio of BRG1 IC50 to BRM IC50
Protocol: The ATPase catalytic activity of BRM or BRG-1 was measured by an in vitro biochemical assay using ADP-Glo™ (Promega, V9102). The ADP-Glo™ kinase assay is performed in two steps once the reaction is complete. The first step is to deplete any unconsumed ATP in the reaction. The second step is to convert the reaction product ADP to ATP, which will be utilized by the luciferase to generate luminesce and be detected by a luminescence reader, such as Envision. […]
VALUE TYPE: Ratio*

C[C@@H]1CCN(C)c2nc(-c3ccc4cnc(CNC(=O)c5ccc6c(c5)S(=O)(=O)CCOC6)cc4n3)ccc21 [Compound 695]; 9.72

P. O=C(NCc1cc2nc(-c3ccc4c(n3)OCCC4)ccc2cn1)c1ccc2c(c1)S(=O)(=O)CCOC2 [Compound 499]
Q. O=C(NCc1cc2nc(N3C(=O)Cc4ccccc43)ccc2cn1)c1ccc2c(c1)S(=O)(=O)CCOC2 [Compound 356]
R. COC[C@H]1C[C@@H]1c1cccc(-c2ccc3cnc(CNC(=O)c4ccc5c(c4)S(=O)(=O)CCOC5)cc3n2)n1 [Compound 369]
S. COCCN(CC(F)F)c1cccc(-c2ccc3cnc(CNC(=O)c4ccc5c(c4)S(=O)(=O)CCOC5)cc3n2)n1 [Compound 358]
Asked: Arrange the 4 compounds from largest to smallest Ratio*. Reply: labels, ordered per the request.
Given back: R, S, P, Q

I. C[C@H]1COCc2ccc(C(=O)NCc3cc4nc(N5CCOc6cc(Cl)cnc65)ccc4cn3)cc2S1(=O)=O [Compound 646]
II. CC[C@H]1CCS(=O)(=O)c2cc(C(=O)NCc3cc4nc(-c5cccc(N6C[C@@H](C)O[C@@H](C)C6)n5)ccc4cn3)ccc2O1 [Compound 584]
III. COC1Cc2cccnc2N(c2ccc3cnc(CNC(=O)c4ccc5c(c4)S(=O)(=O)CCOC5)cc3n2)C1 (stereo not shown) [Compound 633]
Asked: Arrange the 3 compounds from largest to smallest Ratio*. Reply: labels, ordered per the request.
Given back: I, II, III
(I: 20.44, II: 6.31, III: 2.24)

I. C[C@@H]1CN(c2cccc(-c3ccc4cnc(CNC(=O)c5ccc6c(c5)S(=O)(=O)CCO[C@@H]6C5CC5)cc4n3)n2)C[C@H](C)O1 [Compound 454]
II. C[C@@H]1CN(c2cccc(-c3ccc4cnc(CNC(=O)c5ccc6c(c5)S(=O)(=O)CCO[C@H]6C5CC5)cc4n3)n2)C[C@H](C)O1 [Compound 459]
Asked: Which record would sort first by descending Ratio*, I or II ? Output the label that corresponds to your choice.
Given back: II

a. C[C@@H]1Cc2ccc(-c3ccc4cnc(CNC(=O)c5ccc6c(c5)S(=O)(=O)CCOC6)cc4n3)nc2N(C)C1 [Compound 661]
b. O=C(NCc1cc2nc(N3CCCc4ccc(C(F)F)nc43)ccc2cn1)c1ccc2c(c1)S(=O)(=O)CCOC2 [Compound 563]
Asked: Which record would sort first by descending Ratio*, a or b ? Output the label that corresponds to your choice.
Given back: b

====

Target: BRG-1 (Homo sapiens)
Construct: made in house; host or cells: High Five insect cells
Sequence (P51532 whole entry): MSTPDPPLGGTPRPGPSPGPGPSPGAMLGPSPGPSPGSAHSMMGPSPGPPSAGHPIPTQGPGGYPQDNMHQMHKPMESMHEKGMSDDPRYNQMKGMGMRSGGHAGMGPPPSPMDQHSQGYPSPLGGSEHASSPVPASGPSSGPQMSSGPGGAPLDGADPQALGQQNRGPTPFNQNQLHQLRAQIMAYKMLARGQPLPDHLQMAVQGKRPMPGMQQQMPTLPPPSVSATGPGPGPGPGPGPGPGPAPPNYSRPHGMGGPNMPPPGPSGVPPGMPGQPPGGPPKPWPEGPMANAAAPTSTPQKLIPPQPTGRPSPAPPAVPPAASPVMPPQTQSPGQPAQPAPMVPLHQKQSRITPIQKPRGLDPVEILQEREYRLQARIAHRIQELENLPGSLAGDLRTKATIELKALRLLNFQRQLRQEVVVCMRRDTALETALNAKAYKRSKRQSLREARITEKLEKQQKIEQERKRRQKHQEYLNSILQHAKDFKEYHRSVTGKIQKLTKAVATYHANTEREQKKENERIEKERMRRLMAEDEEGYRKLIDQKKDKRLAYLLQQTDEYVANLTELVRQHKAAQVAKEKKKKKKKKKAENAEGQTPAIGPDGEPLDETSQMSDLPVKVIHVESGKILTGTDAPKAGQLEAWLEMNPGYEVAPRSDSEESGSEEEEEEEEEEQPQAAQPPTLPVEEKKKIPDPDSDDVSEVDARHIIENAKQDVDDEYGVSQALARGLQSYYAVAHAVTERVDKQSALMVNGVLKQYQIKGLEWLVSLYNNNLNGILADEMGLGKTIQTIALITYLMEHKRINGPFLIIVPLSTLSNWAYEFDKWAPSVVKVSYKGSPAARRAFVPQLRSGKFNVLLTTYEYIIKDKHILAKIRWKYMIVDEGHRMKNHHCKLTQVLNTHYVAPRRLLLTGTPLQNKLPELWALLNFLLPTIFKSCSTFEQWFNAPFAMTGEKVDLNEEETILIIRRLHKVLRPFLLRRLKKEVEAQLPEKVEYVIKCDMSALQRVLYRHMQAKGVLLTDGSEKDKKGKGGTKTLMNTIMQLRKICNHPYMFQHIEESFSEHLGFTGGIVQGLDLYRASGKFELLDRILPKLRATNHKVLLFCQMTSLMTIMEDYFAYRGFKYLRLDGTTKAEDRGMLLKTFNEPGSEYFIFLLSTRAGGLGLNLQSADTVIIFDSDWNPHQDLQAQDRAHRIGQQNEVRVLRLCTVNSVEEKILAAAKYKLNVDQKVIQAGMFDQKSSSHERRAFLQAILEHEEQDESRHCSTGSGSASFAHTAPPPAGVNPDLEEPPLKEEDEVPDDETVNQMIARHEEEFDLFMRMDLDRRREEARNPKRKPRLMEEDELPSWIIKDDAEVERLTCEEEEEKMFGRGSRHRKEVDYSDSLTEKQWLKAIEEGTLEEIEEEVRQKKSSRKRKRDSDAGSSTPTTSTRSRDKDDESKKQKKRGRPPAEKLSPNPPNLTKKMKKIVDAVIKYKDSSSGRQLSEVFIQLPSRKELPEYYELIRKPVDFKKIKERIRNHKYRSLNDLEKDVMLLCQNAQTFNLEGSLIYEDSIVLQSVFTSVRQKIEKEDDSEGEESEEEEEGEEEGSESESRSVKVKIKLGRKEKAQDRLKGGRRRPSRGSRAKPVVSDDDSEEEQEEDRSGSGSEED
Assay: ATPase catalytic activity of BRG-1, ADP-Glo in vitro biochemical assay
Settings: ADP-Glo ATPase assay, 30 nM BRG-1, 400 μM ATP; read-out: BRG1 IC50
VALUE TYPE: IC50 (nM)

P. O=C(NCc1cc2nc(-c3ccc4c(n3)OCC4)ccc2cn1)c1ccc2c(c1)S(=O)(=O)CCOC2
Q. COc1nn([C@H]2C[C@@H](F)C2)cc1-c1ccc2cnc(CNC(=O)c3ccc4c(c3)S(=O)(=O)CCOC4)cc2n1
Asked: // compare: P vs Q , metric IC50, want the smaller Output the label that corresponds to your choice.
Given back: P
(P: 2070 nM, Q: 3090 nM)

====

Biological target: BRM (Homo sapiens)
Construct: made in house; host or cells: High Five insect cells
Test: ATPase catalytic activity of BRM, ADP-Glo in vitro biochemical assay
Conditions: selectivity ratio BRG1 IC50 / BRM IC50
VALUE TYPE: Ratio* (BRG1 IC50 (μM) divided by BRM IC50 (μM))

CS(=O)(=O)c1cc(C(=O)NCc2cc3nc(-c4cncc(C5CC5)n4)ccc3cn2)ccc1CC(F)F [Compound 164]; 12.80

A. C[C@@H]1CN(c2cccc(-c3ccc4cnc(CNC(=O)c5cc(C6CC6)c6c(c5)S(=O)(=O)CCOC6)cc4n3)n2)C[C@H](C)O1 [Compound 75]
B. C[C@@H]1CC(c2cccc(-c3ccc4cnc(CNC(=O)c5ccc6c(c5)S(=O)(=O)CCOC6)cc4n3)n2)=C[C@H](C)O1 [Compound 46]
C. C[C@@H]1CN(c2cccc(-c3ccc4cnc(CNC(=O)c5ccc(C(F)F)c(S(C)(=O)=O)c5)cc4n3)n2)C[C@H](C)O1 [Compound 206]
D. COc1cc(Cl)ccc1-c1ccc2cnc(CNC(=O)c3ccc4c(c3)S(=O)(=O)CCOC4)cc2n1 [Compound 102]
Asked: Hi! Can you put these in order of Ratio* (BRG1 IC50 (μM) divided by BRM IC50 (μM)), lowest number first? Reply: labels, ordered per the request.
Given back: B, D, C, A
(B: 4.92, D: 7.68, C: 13.71, A: 19.65)

1. C[C@@H]1C=C(c2cccc(-c3ccc4cnc(CNC(=O)c5ccc6c(c5)S(=O)(=O)CCOC6)cc4n3)n2)C[C@H](C)O1 [Compound 45]
2. O=C(NCc1cc2nc(-c3cncc(C4CC4)n3)ccc2cn1)c1ccc2c(c1)S(=O)(=O)COCC2 [Compound 236]
3. O=C(NCc1cc2nc(-c3cncc(C4CC4)n3)ccc2cn1)c1ccc2c(c1)[S+]([O-])CCOC2 (stereo not drawn) [Compound 299]
Asked: Hi! Can you put these in order of Ratio* (BRG1 IC50 (μM) divided by BRM IC50 (μM)), lowest number first? Reply: labels, ordered per the request.
Given back: 1, 3, 2
(1: 3.87, 3: 7.32, 2: 12.93)
